Tested on: Hyperlipemia Model of SD Rat
assay_overview: Screening in the hyperlipemia model of SD rat (fat emulsion by gavage; serum lipids)
Type: in vivo
condition_description: hyperlipemia SD rats, 40 mg/kg, dosed 21 days, X ± SD
property: HDL-C Concentration (serum high-density lipoprotein) (mmol/L)
Your answer should be a plain number; it is taken to be in mmol/L.

Answered examples (4):
INSERT INTO results (molecule, result) VALUES
  ('Cc1ccc(C)c(OCCCC(C)(C)C(=O)NC2CCC(C(=S)c3ccc(O)cc3)CC2)c1 (stereo not drawn)', 1.56),
  ('CC(C)(Oc1ccc(CCNC(=O)c2ccc(Cl)cc2)cc1)C(=O)NCC(=O)c1ccc(O)cc1', 1.56),
  ('COc1ccc(OCCCC(C)(C)C(=O)NCC(=O)c2ccc(O)c(C)c2)cc1C', 2.25),
  ('Cc1ccc(C)c(OCCCC(C)(C)C(=O)NCC(=O)c2ccc(O)cc2)c1', 1.54);

Q. Entry CCC(C)(Oc1ccc(C2(c3ccc(OC(C)(CC)C(=O)NCC(=O)c4ccc(O)cc4)cc3)CCCCC2)cc1)C(=O)O (stereo not drawn) , system Hyperlipemia Model of SD Rat: what HDL-C Concentration (serum high-density lipoprotein) was measured?
A. 1.79

Q. Similarly, CCC(C)(Oc1ccc(C2(c3ccc(OC(C)(CC)C(=O)NCC(=O)c4ccc(O)cc4)cc3)CCCCC2)cc1)C(=O)NCC(=O)c1ccc(O)cc1 (stereo not drawn) ?
A. 1.895
